test system: endogenous NAMPT in U2OS cells; assay: Cellular NAD+ modulation assay (NAD/NADH-Glo, U2OS cells); assay type: cell-based; settings: Homo sapiens, 24 hours incubation, cellular NAD+
MEASUREMENT_NAME: EC50

# COMPOUND, TEST_RESULT
measured = [
    ("Cn1ncc(Cl)c1CC1(C)c2cc(Br)ccc2C(=O)N1Cc1ccc2[nH]c(=O)oc2c1 (stereo not drawn)", "< 500 nM"),
    ("Cn1ncc(Cl)c1CC1c2cccc(Cl)c2C(=O)N1Cc1ccc2[nH]nnc2c1 (stereo not drawn)", "< 500 nM"),
    ("Cn1ncc(Cl)c1CC1c2cc(Br)ccc2C(=O)N1Cc1ccc2[nH]nnc2c1 (stereo not drawn)", "< 500 nM"),
    ("Cn1ncc(Cl)c1CC1c2ccccc2C(=O)N1C/C=C/c1nn[nH]c1F (stereo not drawn)", "< 500 nM"),
    ("Cn1nc(C(F)(F)F)c(Cl)c1CC1c2ccccc2C(=O)N1Cc1ccc2[nH]nnc2c1 (stereo not drawn)", "< 500 nM"),
]

Here is the next item to consider.
Need EC50 of Cn1ncc(Cl)c1CC1c2ccccc2C(=O)N1Cc1ccc2nonc2c1 (stereo not drawn) , thanks.
5000 to 50000 nM
